I'd appreciate it if you could supply pIC50 values for the items below.
target: Dual specificity protein phosphatase 3 (Homo sapiens, UniProt P51452); experiment: Inhibition of recombinant vaccina H1-related phosphatase
Sequence (P51452 whole entry): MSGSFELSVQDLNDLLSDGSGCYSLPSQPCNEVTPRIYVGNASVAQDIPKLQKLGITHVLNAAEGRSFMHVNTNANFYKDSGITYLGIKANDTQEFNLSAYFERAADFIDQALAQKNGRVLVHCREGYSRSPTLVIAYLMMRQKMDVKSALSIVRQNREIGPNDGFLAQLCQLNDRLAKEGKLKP
Numbers only, as −log10 of the molar value.

Worked examples follow.
| given-smiles | pIC50 |
| --- | --- |
| O=C1/C(=C/c2cn(-c3ccccc3)nc2-c2ccc(Cl)cc2)SC(=S)N1CCS(=O)(=O)O | 5.74 |
| Cc1ccc(-c2nn(-c3ccccc3)cc2/C=C2\SC(=S)N(CCS(=O)(=O)O)C2=O)cc1 | 5.51 |
| COc1ccc(-c2nn(-c3ccccc3)cc2/C=C2\SC(=S)N(CCS(=O)(=O)O)C2=O)cc1 | 5.74 |

# map each compound to its pIC50
1. O=C1/C(=C/c2cn(-c3ccccc3)nc2-c2ccc(S(=O)(=O)N3CCOCC3)cc2)SC(=S)N1CCS(=O)(=O)O
2. O=C1/C(=C/c2cn(-c3ccccc3)nc2-c2ccc(OCc3ccccc3Cl)cc2)SC(=S)N1CCS(=O)(=O)O

Out:
[5.62, 7.15]

----------
biological target: Tyrosine-protein phosphatase non-receptor type 1 (Homo sapiens); assay: Inhibition of recombinant PTP1B
Sequence (P18031 whole entry): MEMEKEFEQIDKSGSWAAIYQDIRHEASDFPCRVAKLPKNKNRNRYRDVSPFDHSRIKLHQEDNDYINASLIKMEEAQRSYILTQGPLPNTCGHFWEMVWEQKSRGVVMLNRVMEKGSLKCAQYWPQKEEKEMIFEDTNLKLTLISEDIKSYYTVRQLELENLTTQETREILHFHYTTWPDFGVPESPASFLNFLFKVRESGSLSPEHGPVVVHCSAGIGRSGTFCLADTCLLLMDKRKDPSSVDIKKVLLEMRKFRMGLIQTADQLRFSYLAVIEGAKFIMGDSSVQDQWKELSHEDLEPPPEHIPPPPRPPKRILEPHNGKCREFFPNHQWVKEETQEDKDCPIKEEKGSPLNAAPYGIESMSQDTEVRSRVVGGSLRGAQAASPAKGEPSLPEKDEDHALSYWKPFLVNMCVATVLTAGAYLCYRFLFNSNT
parameter: pIC50
Give bare numbers, as −log10 of the molar value.

Worked examples follow.
| given-smiles | reported |
| --- | --- |
| O=C1/C(=C/c2cn(-c3ccccc3)nc2-c2ccc(OCc3ccccc3Cl)cc2)SC(=S)N1CCS(=O)(=O)O | 6.23 |
| O=C1/C(=C/c2cn(-c3ccccc3)nc2-c2ccc(S(=O)(=O)N3CCCCC3)cc2)SC(=S)N1CCS(=O)(=O)O | 5.66 |
| O=C1/C(=C/c2cn(-c3ccccc3)nc2-c2ccc(OCc3ccccc3F)cc2)SC(=S)N1CCS(=O)(=O)O | 6.38 |

Consider the record given below.
In: Tell me its pIC50 given O=C1/C(=C/c2cn(-c3ccccc3)nc2-c2ccc(OCc3ccccc3)cc2)SC(=S)N1CCS(=O)(=O)O as the entry.
Out: 5.74

----------
target: Dual specificity protein phosphatase 1 (Homo sapiens, UniProt P28562); experiment: Inhibition of recombinant MKP1
Sequence (P28562 whole entry): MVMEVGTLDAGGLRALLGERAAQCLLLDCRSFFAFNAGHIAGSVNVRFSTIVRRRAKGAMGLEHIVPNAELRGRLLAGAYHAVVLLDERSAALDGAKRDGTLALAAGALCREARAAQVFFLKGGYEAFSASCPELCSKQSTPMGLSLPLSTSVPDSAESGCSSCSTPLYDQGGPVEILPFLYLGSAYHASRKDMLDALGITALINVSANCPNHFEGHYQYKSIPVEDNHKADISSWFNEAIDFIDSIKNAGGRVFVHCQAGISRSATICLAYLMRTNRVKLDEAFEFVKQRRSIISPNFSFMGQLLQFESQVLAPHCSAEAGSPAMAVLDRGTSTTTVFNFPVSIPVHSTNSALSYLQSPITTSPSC
I'd appreciate it if you could supply pIC50 values for the items below.
Numbers only, as −log10 of the molar value.

Worked examples follow.
| given-smiles | pIC50 |
| --- | --- |
| O=C1/C(=C/c2cn(-c3ccccc3)nc2-c2ccc(OCc3ccccc3Cl)cc2)SC(=S)N1CCS(=O)(=O)O | 6.33 |
| O=C1/C(=C/c2cn(-c3ccccc3)nc2-c2ccc(S(=O)(=O)N3CCCCC3)cc2)SC(=S)N1CCS(=O)(=O)O | 5.55 |

Consider the record given below.
In: Param request: pIC50 | system Dual specificity protein phosphatase 1 (Homo sapiens, UniProt P28562) | item O=C1/C(=C/c2cn(-c3ccccc3)nc2-c2ccc(OCc3ccccc3F)cc2)SC(=S)N1CCS(=O)(=O)O
Out: 6.28

----------
target: UniProt P51452; assay: Inhibition of recombinant vaccina H1-related phosphatase expressed in Escherichia coli by Michaelis-Menten kinetic studies
I'd appreciate it if you could supply pKi values for the items below.
Give bare numbers, as −log10 of the molar value.

| molecule | system-name | reported |
| --- | --- | --- |
| O=C(O)c1cccc(-c2ccc(/C=N/Nc3ccc([N+](=O)[O-])cn3)o2)c1 | UniProt P51452 | 4.86 |

# map each molecule to its pKi
1. O=C(O)C(Cc1ccccc1)N1C(=O)/C(=C/C=C/c2ccccc2)SC1=S (stereo not drawn)
2. CC1=C(C#N)c2nc(N)c(C#N)c(C)c2/C1=C/c1ccc(-c2ccc(C(=O)O)c(Cl)c2)o1

Out:
1: 5.70; 2: 5.41
